- Protocol text: yeast display, Sf9 membrane polyspecificity reagent, FACS + sequencing; frameworks hold sequencing errors
Measured metric: polyreactivity (PSR sort gate)

>>> reading("QVQHVESGGGLVQAGGSLRLSCAASGFTFKFYTMGWYRQAPGKERELVAAISRSGGTTYYADSVKGRFTISRDNAKNTVYLQMTSLKPEDTAVYYCAAPRTKYLSKYGYWGQGTQVTVSS")
"high polyreactivity"
>>> reading("QVQLVDSGGGLVQAGGSLRLSCAASGRIFYQYAMGWYRQAPGKERELVAGISKRGGSTYYADSVKGRFTISRDNAKNTVYLQMNSLKPEDTAVYYCARGGYPGSAEYDYWGQATQVTVSS")
"high polyreactivity"
>>> reading("QVQLVESGGGLVQAGGSLRLSCAASGLTFDRYAKGWYRQAPGKERELVAAITSGGSTYYADSVKGRFTISRDNAKNTVYLQMNSLKPEDTAVYYCAALVFRGRSFTHDYWGQGTQVTVSS")
"high polyreactivity"
